Hello, the source for this data is patent US8435975B2, in case you need it.

Test system: mouse macrophages (Balb C)
Assay: In vitro cytotoxicity using mouse macrophages (acute toxicity), MTT assay
Assay type: cell-based
Settings: both, Balb C, mouse, 48 h, 0.01 μg/ml
label 1 if % viable Cells (mean ± SEM) is below 90%. label 0 if not; exact matches included in label 0.

Compound | Test system | Answer label
Cc1ccc(C(=O)O[C@H]2CC[C@@]3(C)C(=CC[C@@H]4[C@@H]3CC[C@]3(C)C(=NO)CC[C@@H]43)C2)cc1 [Compound 12] | mouse macrophages (Balb C) | label 1
CC(C)(C)NC(=O)[C@H]1CC[C@H]2[C@@H]3CC[C@H]4NC(=O)C=C[C@]4(C)[C@H]3CC[C@]12C [Finasteride, reference compound] | mouse macrophages (Balb C) | label 0
C[C@]12CC[C@H](OC(=O)c3ccc(N)cc3)CC1=CC[C@@H]1[C@@H]2CC[C@]2(C)C(=NO)CC[C@@H]12 [Compound 14] | mouse macrophages (Balb C) | label 1
